System: gastric acid secretion of the conscious male rat
Experiment summary: Inhibitory effect on gastric acid secretion of the conscious male rat at timed intervals after oral administration
Format: in vivo
Run parameters: between 4-7 hr after oral administration; male rat
Documented % inhibition of gastric acid secretion across a set of molecules
The response must be a number in % with no trailing unit.

Solved entries (count: 4):
| Molecule | Endpoint label | Unit spec | Measured |
| --- | --- | --- | --- |
| Cc1c(OCC(F)(F)F)ccnc1C[S+]([O-])c1nc2ccccc2n1S(=O)(=O)c1ccc(OCC(N)=O)cc1 (centres unmarked) | % inhibition of gastric acid secretion | % | 46.9 |
| Cc1c(OCC(F)(F)F)ccnc1C[S+]([O-])c1nc2ccccc2n1S(=O)(=O)c1ccc(OCC(N)=O)c(OCC(N)=O)c1 (centres unmarked) | % inhibition of gastric acid secretion | % | 36.8 |
| Cc1c(OCC(F)(F)F)ccnc1C[S+]([O-])c1nc2ccccc2[nH]1 (centres unmarked) [LANSOPRAZOLE, reference compound] | % inhibition of gastric acid secretion | % | 29 |
| COCCCOc1ccnc(C[S+]([O-])c2nc3ccccc3[nH]2)c1C (centres unmarked) [RABEPRAZOLE, reference compound] | % inhibition of gastric acid secretion | % | 32 |

Proceed to the following item.
Entry under review: COCCCOc1ccnc(C[S+]([O-])c2nc3ccccc3n2S(=O)(=O)c2ccc(OCC(N)=O)c(OCC(N)=O)c2)c1C (centres unmarked) . Reported % inhibition of gastric acid secretion?
56
